# Tested on: Fibroblast
# procedure.details: Multiplex assay against human fibroblast
# Type: toxicity, cell-based
# condition.label: 24 h, 10 µM, compound concentration 10 uM, number of replicates 2
# Population Fragmented Nuclei (%) values compiled below

{"chemical.smiles": "COc1cc(OC)cc(C(=O)NNC(=O)Nc2cccc3ccccc23)c1", "unit.annotation": "%", "Population Fragmented Nuclei (%)": 10}
{"chemical.smiles": "COc1ccc(-c2cc3c(C)nc(N)nc3n([C@H]3CC[C@H](OCCO)CC3)c2=O)cn1", "unit.annotation": "%", "Population Fragmented Nuclei (%)": 20}
{"chemical.smiles": "CCCCOc1c(C(=O)c2c(F)cc(C)cc2F)c[nH]c2nncc1-2", "unit.annotation": "%", "Population Fragmented Nuclei (%)": 10}

* * *

# System: Fibroblast
# procedure.details: Multiplex assay against human fibroblast
# Type: toxicity, cell-based
# condition.label: 48 h, 10 µM, compound concentration 10 uM, number of replicates 2

{"compound": "COc1cc(Nc2cnc(C#N)c(O[C@H](C)CN(C)C)n2)ncc1-c1cnn(C)c1", "study.target": "Fibroblast", "Population Healthy Nuclei (%)": 66}
{"compound": "COc1nc2ccc([C@@](O)(c3ccc(Cl)cc3)c3cncn3C)cc2c(Cl)c1Cc1ccc(-n2cccn2)cc1", "study.target": "Fibroblast", "Population Healthy Nuclei (%)": 64}
{"compound": "COc1cc(Br)c(S(=O)(=O)Nc2ccc(C(F)(F)F)c(O[C@@H]3CCN(C)C3)c2)cc1OC", "study.target": "Fibroblast", "Population Healthy Nuclei (%)": 71}
{"compound": "Br.Cc1cccc(C2CN(C)CCc3c2cc(O)c(O)c3Cl)c1 (stereo not drawn)", "study.target": "Fibroblast", "Population Healthy Nuclei (%)": 82}
{"compound": "COc1ccc(-c2cc3c(C)nc(N)nc3n([C@H]3CC[C@H](OCCO)CC3)c2=O)cn1", "study.target": "Fibroblast", "Population Healthy Nuclei (%)": 59}
{"compound": "CS(=O)(=O)c1ccc(C(=O)Nc2cc(F)cc(COc3ccc(Br)cc3CN3CC[C@H](O)C3)c2)c(Cl)c1.O=CO", "study.target": "Fibroblast", "Population Healthy Nuclei (%)": 54}
{"compound": "CCc1cnn2c(NCc3ccc[n+]([O-])c3)cc(N3CCCCC3CCO)nc12 (stereo not drawn)", "study.target": "Fibroblast", "Population Healthy Nuclei (%)": 63}
{"compound": "CC1(C)C(=O)N([C@H]2CCc3c(O)cccc32)c2nc(Nc3cccc(CN4CCCC4)c3)ncc21", "study.target": "Fibroblast", "Population Healthy Nuclei (%)": 17}

* * *

Examples of compounds with documented Population Normal (%) follow.
# Test system: Fibroblast
# procedure.details: Multiplex assay against human fibroblast
# Format: toxicity, cell-based
# condition.label: 48 h, 10 µM, compound concentration 10 uM, number of replicates 2

{"compound": "CN(C)CCN(Cc1ccc(-c2ccc(CNCCc3ccccc3)cc2)cc1)C(=O)CCC1CCCC1.Cl.Cl", "unit.annotation": "%", "Population Normal (%)": 100}
{"compound": "Cc1ccc2c(c1CCC(=O)O)CC[C@@H](NS(=O)(=O)c1ccc(Cl)cc1)C2", "unit.annotation": "%", "Population Normal (%)": 100}
{"compound": "CC(C)S(=O)(=O)c1ccccc1Nc1nc(N[C@@H]2CCCN(CCCCCCCNC(=O)COc3cccc4c3C(=O)N(C3CCC(=O)N(C)C3=O)C4=O)C2)ncc1Cl (stereo partly drawn)", "unit.annotation": "%", "Population Normal (%)": 98}
{"compound": "CN1CCCN(C(=O)c2cccc(-c3ccc(/C=C4/C(=O)Nc5ccc(Cl)cc54)o3)c2)CC1", "unit.annotation": "%", "Population Normal (%)": 100}
{"compound": "CCCNc1ccc2ncc(-c3ccncc3)n2n1", "unit.annotation": "%", "Population Normal (%)": 99}
{"compound": "Cc1cccc(S(=O)(=O)N(C)[C@H](C)CCN2CCC(C)CC2)c1.Cl", "unit.annotation": "%", "Population Normal (%)": 100}
{"compound": "COc1cc(Br)c(S(=O)(=O)Nc2ccc(C(F)(F)F)c(O[C@@H]3CCN(C)C3)c2)cc1OC", "unit.annotation": "%", "Population Normal (%)": 100}
{"compound": "Br.Cc1cccc(C2CN(C)CCc3c2cc(O)c(O)c3Cl)c1 (stereo not drawn)", "unit.annotation": "%", "Population Normal (%)": 100}
